- test system: T1, IL-18 receptors on HEK-Blue IL-18 reporter cells (UniProt Q13478 19-541; O95256 20-599, limits assumed); also: unit not given here
- T1 sequence (looked up) 1: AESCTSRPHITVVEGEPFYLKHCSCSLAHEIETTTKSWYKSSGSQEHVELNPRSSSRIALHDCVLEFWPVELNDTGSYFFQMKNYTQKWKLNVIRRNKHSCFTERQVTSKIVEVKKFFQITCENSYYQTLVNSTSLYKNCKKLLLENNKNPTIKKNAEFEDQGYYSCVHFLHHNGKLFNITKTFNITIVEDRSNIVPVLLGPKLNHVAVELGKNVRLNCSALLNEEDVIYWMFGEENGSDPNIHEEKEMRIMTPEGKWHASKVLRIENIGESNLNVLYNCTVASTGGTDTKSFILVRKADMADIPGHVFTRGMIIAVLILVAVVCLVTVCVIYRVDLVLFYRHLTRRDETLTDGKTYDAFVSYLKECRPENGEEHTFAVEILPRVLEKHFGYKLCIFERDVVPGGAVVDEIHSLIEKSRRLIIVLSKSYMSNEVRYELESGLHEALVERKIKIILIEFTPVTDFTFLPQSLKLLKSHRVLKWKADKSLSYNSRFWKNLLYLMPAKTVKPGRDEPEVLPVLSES
- T1 sequence (looked up) 2: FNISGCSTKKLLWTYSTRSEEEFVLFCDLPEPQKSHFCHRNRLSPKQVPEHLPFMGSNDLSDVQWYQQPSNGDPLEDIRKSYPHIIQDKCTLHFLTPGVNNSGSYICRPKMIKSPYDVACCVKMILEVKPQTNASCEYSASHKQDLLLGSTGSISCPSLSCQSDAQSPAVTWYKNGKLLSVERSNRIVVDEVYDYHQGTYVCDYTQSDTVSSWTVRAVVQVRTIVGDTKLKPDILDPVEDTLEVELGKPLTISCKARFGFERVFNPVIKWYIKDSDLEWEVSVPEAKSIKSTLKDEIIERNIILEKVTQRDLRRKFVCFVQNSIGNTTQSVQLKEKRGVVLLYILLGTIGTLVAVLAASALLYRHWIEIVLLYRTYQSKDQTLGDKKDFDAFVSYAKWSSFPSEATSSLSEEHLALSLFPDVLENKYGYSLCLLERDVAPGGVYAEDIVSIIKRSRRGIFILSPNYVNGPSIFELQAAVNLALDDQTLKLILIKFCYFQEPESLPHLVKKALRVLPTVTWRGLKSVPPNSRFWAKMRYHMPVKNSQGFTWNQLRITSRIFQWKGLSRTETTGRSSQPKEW
- procedure summary: cell-based or functional assay

binder: yeast display IL-18 variant K53T, S55P (ligand) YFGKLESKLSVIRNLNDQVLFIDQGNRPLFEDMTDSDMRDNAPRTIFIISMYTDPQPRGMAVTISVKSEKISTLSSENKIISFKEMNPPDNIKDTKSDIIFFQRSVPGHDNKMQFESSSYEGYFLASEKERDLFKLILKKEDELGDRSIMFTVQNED
HEK-Blue activity, No BP, DF-100,000: 0.59
--
binder: yeast display IL-18 variant K53T, S55F (ligand) YFGKLESKLSVIRNLNDQVLFIDQGNRPLFEDMTDSDMRDNAPRTIFIISMYTDFQPRGMAVTISVKSEKISTLSSENKIISFKEMNPPDNIKDTKSDIIFFQRSVPGHDNKMQFESSSYEGYFLASEKERDLFKLILKKEDELGDRSIMFTVQNED
HEK-Blue activity, No BP, DF-100,000: 0.2
--
binder: yeast display IL-18 variant K53Y, S55Y (ligand) YFGKLESKLSVIRNLNDQVLFIDQGNRPLFEDMTDSDMRDNAPRTIFIISMYYDYQPRGMAVTISVKSEKISTLSSENKIISFKEMNPPDNIKDTKSDIIFFQRSVPGHDNKMQFESSSYEGYFLASEKERDLFKLILKKEDELGDRSIMFTVQNED
HEK-Blue activity, No BP, DF-100,000: 0.17
--
binder: yeast display IL-18 variant K53S, S55F, R104K, H109Y (ligand) YFGKLESKLSVIRNLNDQVLFIDQGNRPLFEDMTDSDMRDNAPRTIFIISMYSDFQPRGMAVTISVKSEKISTLSSENKIISFKEMNPPDNIKDTKSDIIFFQKSVPGYDNKMQFESSSYEGYFLASEKERDLFKLILKKEDELGDRSIMFTVQNED
HEK-Blue activity, No BP, DF-100,000: 0.11
--
binder: yeast display IL-18 variant K53S, S55G (ligand) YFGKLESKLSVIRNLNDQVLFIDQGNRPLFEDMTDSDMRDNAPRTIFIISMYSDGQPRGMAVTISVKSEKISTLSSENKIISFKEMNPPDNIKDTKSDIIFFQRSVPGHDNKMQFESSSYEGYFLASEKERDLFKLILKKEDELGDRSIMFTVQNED
HEK-Blue activity, No BP, DF-100,000: 0.91
--
binder: yeast display IL-18 variant K53Q, D54N, S55M, Q56H (ligand) YFGKLESKLSVIRNLNDQVLFIDQGNRPLFEDMTDSDMRDNAPRTIFIISMYQNMHPRGMAVTISVKSEKISTLSSENKIISFKEMNPPDNIKDTKSDIIFFQRSVPGHDNKMQFESSSYEGYFLASEKERDLFKLILKKEDELGDRSIMFTVQNED
HEK-Blue activity, No BP, DF-100,000: 0.13
--
binder: yeast display IL-18 variant K53T, S55M, R58K (ligand) YFGKLESKLSVIRNLNDQVLFIDQGNRPLFEDMTDSDMRDNAPRTIFIISMYTDMQPKGMAVTISVKSEKISTLSSENKIISFKEMNPPDNIKDTKSDIIFFQRSVPGHDNKMQFESSSYEGYFLASEKERDLFKLILKKEDELGDRSIMFTVQNED
HEK-Blue activity, No BP, DF-100,000: 0.2
--
binder: yeast display IL-18 variant K53S, S55Y (ligand) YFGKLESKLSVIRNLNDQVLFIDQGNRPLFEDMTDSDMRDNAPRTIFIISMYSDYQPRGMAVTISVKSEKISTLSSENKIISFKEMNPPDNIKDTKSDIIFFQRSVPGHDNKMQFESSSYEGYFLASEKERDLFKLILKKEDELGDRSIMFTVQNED
HEK-Blue activity, No BP, DF-100,000: 0.54

Values compiled from patent US20240182536A1.
